- Test system: MDA-MB-231 breast
- Test summary: NCI-60 one-dose screen, 48 h (100 = growth as untreated, 0 = no growth, -100 = all killed)
- Recorded conditions: 10 µM unless noted
Compounds without any hit were thinned out: in the full panel of roughly 83,000, 20% have a hit.

# Compound, Scale unit, growth
rows = [
    ("COc1ccc2c(c1)C(=O)/C(=C/c1cccc(OCC(=O)c3ccccc3)c1)O2", "%", 67.3),
    ("CC(C)CNCC(O)COc1ccc(C(C)(C)c2ccc(OCC(O)CNCC(C)C)cc2)cc1 (centres undefined)", "%", -14.4),
    ("CCOC(=O)n1cnc2c(Cl)ncnc21", "%", 101),
    ("CC1=C2C(=C[C@@](C)(CO)[C@@H]2OC(=O)N(C)CCN(C)C(=O)OC(C)(C)C)C(=O)[C@](C)(O)C12CC2", "%", 48),
    ("COc1cc(-c2nc(N)n(CC(=O)Nc3ccc(/C(C)=N\\O)cc3)n2)cc(OC)c1OC", "%", 103),
    ("O=C1/C(=C/c2cccc3cnccc23)Cc2cc(F)ccc21", "%", 93.4),
    ("CCOc1ccc(-n2c(-c3cc(OC)c(OC)c(OC)c3)nnc2-c2ccc(OC)cc2N)cc1", "%", 82.7),
    ("COc1ccc(-c2nn(-c3ccc(NC(=O)Nc4cc(C(F)(F)F)cc(C(F)(F)F)c4)cc3)cc2-c2ccncc2)cc1Cl", "%", 8.03),
    ("CCCC(=O)Oc1ccc(/C(=C(\\C)c2ccc(OC)cc2)c2ccc(OCCN3CCCCC3)cc2)cc1", "%", 109),
]

====

- System: K-562 leukemia
- Test summary: NCI-60 one-dose screen, 48 h (100 = growth as untreated, 0 = no growth, -100 = all killed)
- Recorded conditions: 10 µM unless noted
About 83,000 compounds went through this panel and 20% of them were active in at least one assay; those are over-represented in the sample as a whole.

# Structure smiles string, Tgt, growth [%]
measured = [
    ("CC(C)[C@@H]1NC(=O)[C@]2(C)CSC(=N2)c2ccnc(c2)CNC(=O)C[C@@H](/C=C/CCS)OC1=O", "K-562 leukemia", 6.95),
    ("Cc1cccc(Cc2cnc(NC(=O)CCc3ccc(C)o3)s2)c1", "K-562 leukemia", 6.63),
    ("O=C(Nc1cccc(-n2ccc3c(NC(=O)c4ccccc4)nccc32)c1)Nc1cc(C(F)(F)F)cc(C(F)(F)F)c1", "K-562 leukemia", 4.23),
    ("CCc1c(C)c2cc(-n3c(-c4ccc(OC)cc4)csc3=N)c(O)c(C)c2oc1=O", "K-562 leukemia", 5.33),
    ("c1ccc([Se]CCCN2CCN(CCC[Se]c3ccccc3)CC2)cc1", "K-562 leukemia", 129),
    ("CN1CCN(Cn2nc(-c3cc(Cl)cc(Cl)c3Cl)n(/N=C/c3ccc(Cl)cc3)c2=S)CC1", "K-562 leukemia", 73.9),
    ("O=C(N/N=C1\\SCC(=O)N1c1ccccc1)c1cc(-c2cc3ccccc3o2)nn1-c1ccccc1", "K-562 leukemia", 90.6),
    ("Nc1nccc2c1ccn2-c1ccc(NC(=O)c2ccc(N3CCOCC3)c(C(F)(F)F)c2)cc1", "K-562 leukemia", 1.22),
    ("COc1ccc(-c2ccc(NC(=O)Nc3ccc(Cl)c(C(F)(F)F)c3)c(C)n2)cc1", "K-562 leukemia", 16.7),
]
